# assayComment: protein stability index of a GFP-peptide fusion (yeast GPS) (PSI 1-4); higher = more stable; sorted into four equal gates, so the index is relative within each strain
# cond: ubr1∆
measuredMetric: protein stability index

primarysequence="RLAEFKRRKLDLNNAVQ [SMC4]" quantitativeresult=2.96
primarysequence="MQKQHEMKTQAAELQEK [SNF6]" quantitativeresult=2.54
primarysequence="LGKGGAKRHRKILRDNI [HHF1]" quantitativeresult=2.99
primarysequence="LFLYKELVKAHLGERAA [RPC82]" quantitativeresult=2.77
primarysequence="TLEQKVNLENPIPIAVL [FAS1]" quantitativeresult=1.39
primarysequence="CIECQPKAMTDTDNECV [HRT1]" quantitativeresult=3.32
primarysequence="LSIICVGGHNVTIREQI [SIR3]" quantitativeresult=1.81
primarysequence="YKLNVRSNDPQSSLSKV [NUT2]" quantitativeresult=3.41
primarysequence="KLYFQLFLNTGCLSVLY [SRP68]" quantitativeresult=1.21
primarysequence="MSDSIISFAAFILADAG [RPP1B]" quantitativeresult=1.26
primarysequence="FDKKSFFNGKALNNAIP [PRP8]" quantitativeresult=1.92
primarysequence="QKKNFLFKPLNKTLTLD [ARP7]" quantitativeresult=1.89
primarysequence="IRTILVNIHHLLNEYRP [MED7]" quantitativeresult=1.58
primarysequence="VNGFLNLGYCNDKLIVD [RPN1]" quantitativeresult=2.49
primarysequence="KYLSDIMELPGVYSDDE [SRP68]" quantitativeresult=3.36
